Give measured Ki for each item. Keep answers brief.
Target: human glucocorticoid receptor (Homo sapiens)
Construct: purified human recombinant full-length glucocorticoid receptor (2 nM); purchased Invitrogen Part #2893
Sequence (P04150 1-777): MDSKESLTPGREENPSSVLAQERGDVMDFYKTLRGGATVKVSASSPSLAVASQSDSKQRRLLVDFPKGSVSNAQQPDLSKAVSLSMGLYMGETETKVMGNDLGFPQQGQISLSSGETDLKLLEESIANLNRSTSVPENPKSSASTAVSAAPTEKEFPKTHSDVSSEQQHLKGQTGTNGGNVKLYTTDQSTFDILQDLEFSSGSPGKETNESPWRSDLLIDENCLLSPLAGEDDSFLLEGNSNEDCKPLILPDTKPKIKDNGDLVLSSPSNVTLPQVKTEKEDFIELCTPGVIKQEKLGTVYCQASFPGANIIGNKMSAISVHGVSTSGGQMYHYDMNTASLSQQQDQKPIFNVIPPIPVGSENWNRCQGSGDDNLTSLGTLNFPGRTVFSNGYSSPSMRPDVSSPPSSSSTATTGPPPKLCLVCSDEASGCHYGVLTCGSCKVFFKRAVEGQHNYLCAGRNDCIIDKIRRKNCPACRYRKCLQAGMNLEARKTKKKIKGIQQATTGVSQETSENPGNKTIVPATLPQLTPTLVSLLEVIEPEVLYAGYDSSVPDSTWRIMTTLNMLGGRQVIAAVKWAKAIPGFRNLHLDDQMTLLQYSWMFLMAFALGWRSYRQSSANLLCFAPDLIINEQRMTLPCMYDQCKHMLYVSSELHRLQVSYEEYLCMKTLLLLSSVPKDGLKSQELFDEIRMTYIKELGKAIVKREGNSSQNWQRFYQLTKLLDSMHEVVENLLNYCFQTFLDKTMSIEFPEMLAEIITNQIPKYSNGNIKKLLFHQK
Assay: Glucocorticoid Receptor Binding Assay (fluorescence polarization competitor kit)
Details: purified human recombinant full-length GR 2 nM, 1 nM Fluormone GS Red, 2 h room temperature
Procedure: Glucocorticoid Receptor Binding Assay In order to assess the affinity of test compounds for the human glucocorticoid receptor, a commercially available kit was used (Glucocorticoid Receptor Competitor Assay Kit, Invitrogen Part #2893). […] After two hour incubation at room temperature in the dark, the fluorescence polarization (FP) of the samples was measured. […] Test compounds were analyzed in the concentration range from 8.5E-05 μM to 5 μM.
One number for each entry, in nM.

Cc1cscc1-c1ncn2cc(C(c3ccccc3)C(C)(C)C(=O)Nc3nncs3)ccc12 (centres unmarked) [Example 23] : 36

Hello, I would appreciate it if you could give Ki for each entry below.
1. CC(C)(C(=O)Nc1nncs1)C(c1ccccc1)c1ccc2c(-c3cccc(C#N)c3)ncn2c1 (centres unmarked) [Example 15]
2. CC(C)(C(=O)Nc1nncs1)C(c1ccccc1)c1ccc2cncn2c1 (centres unmarked) [Example 13]
3. CC(C)(C(=O)Nc1nncs1)C(c1ccccc1)c1ccn2cncc2c1 (centres unmarked) [Example 11]
4. Cc1nnc2ccc(C(c3ccccc3)C(C)(C)C(=O)Nc3nncs3)cn12 (centres unmarked) [Example 26]
5. CC(C)(C(=O)Nc1nncs1)C(c1ccccc1)c1ccc2c(-c3ccc(F)c(Cl)c3)ncn2c1 (centres unmarked) [Example 21]
6. CC(C)(C(=O)Nc1nccs1)C(c1ccccc1)c1ccc2c(Br)ncn2c1 (centres unmarked) [Example 6]
7. Cc1nnc2ccc(C(c3ccccc3)C(C)(C)C(=O)Nc3nccs3)cn12 (centres unmarked) [Example 25]
8. CC(C)(C(=O)Nc1nncs1)C(c1ccccc1)c1ccc2c(-c3cccc(CO)c3)ncn2c1 (centres unmarked) [Example 22]

Result string:
[22.6, 19.5, 27.1, 5450, 46.6, 30.2, 2360, 12.2]

Hello, I would appreciate it if you could give Ki for each entry below.
1. CC(C)(C(=O)NC1CC1)C(c1ccccc1)c1ccn2c(-c3ccccc3)ncc2c1 (centres unmarked) [Example 10]
2. CC(C)(CNC(=O)C(F)(F)F)C(c1ccccc1)c1ccn2c(-c3ccccc3)ncc2c1 (centres unmarked) [Example 2]

Result string:
7.3
16.5

---

Target: human glucocorticoid receptor (Homo sapiens)
Construct: purified human recombinant full-length glucocorticoid receptor (2 nM); purchased Invitrogen Part #2893
Test: Glucocorticoid Receptor Binding Assay (fluorescence polarization competitor kit)
Conditions: purified human recombinant full-length GR 2 nM, 1 nM Fluormone GS Red, 2 h room temperature
Recorded endpoint: Ki
Just the number plus its unit, please.

Worked examples, 4 compounds total:
CC(C)(C(=O)Nc1nccs1)C(c1ccccc1)c1ccc2c(-c3ccc(C#N)cc3)ncn2c1 (centres unmarked) : 26.2 nM
CC(C)(C(=O)Nc1nccs1)C(c1ccccc1)c1ccc2cncn2c1 (centres unmarked) : 13 nM
CC(C)(C(=O)Nc1nncs1)C(c1ccccc1)c1ccc2nncn2c1 (centres unmarked) : 327 nM
CC(C)(C(=O)Nc1nccs1)C(c1ccccc1)c1ccc2c(-c3ccc(F)c(Cl)c3)ncn2c1 (centres unmarked) : 65.9 nM

Hello, I would appreciate it if you could give Ki for each entry below.
1. CC(C)(C(=O)Nc1nccs1)C(c1ccccc1)c1ccc2nncn2c1 (centres unmarked)
2. CCOC(=O)NCC(C)(C)C(c1ccccc1)c1ccn2c(-c3ccccc3)ncc2c1 (centres unmarked)
3. CC(C)(C(=O)Nc1nccs1)C(c1ccccc1)c1ccc2c(-c3cccc(C#N)c3)ncn2c1 (centres unmarked)
4. CC(C)(C(=O)Nc1nccs1)C(c1ccccc1)c1ccn2cncc2c1 (centres unmarked)

Result string:
1: 169 nM; 2: 27.4 nM; 3: 17 nM; 4: 17.7 nM
